# System: Fibroblast
# protocol-details: Multiplex assay against human fibroblast
# Assay type: toxicity, cell-based
# details: 24 h, 10 µM, compound concentration 10 uM, replicate 1
I'd be grateful if you could share measured Population Hoechst High Intensity Objects (%) for these entries.
Dear colleague, please return just the value in %, with no unit written.

Data request: Entry CCCn1c(=O)c2[nH]c(-c3cnn(Cc4cccc(C(F)(F)F)c4)c3)nc2n(CC)c1=O [GS 6201] : reported Population Hoechst High Intensity Objects (%) = ?
Data returned: 26

Data request: // lookup Population Hoechst High Intensity Objects (%) for S=C(NCCCc1c[nH]cn1)NCCCN(Cc1ccc(Cl)c(Cl)c1)c1ccc(Br)cn1
Data returned: 21

Data request: Tell me the measured Population Hoechst High Intensity Objects (%) of CNC(=O)c1ccc(Nc2nc(OC3CCCC3)c3c(-c4ccc5nc(C)oc5c4)c[nH]c3n2)c(OC)c1 , please.
Data returned: 23

###

I'd be grateful if you could share measured Population Fragmented Nuclei (%) for these entries.
# Test system: HEK-293T
# protocol-details: Multiplex assay against HEK293T
# Type: toxicity, cell-based
# details: human, 24 h, 10 µM, compound concentration 10 uM, replicate 1

Data request: Query the reported Population Fragmented Nuclei (%) for HEK-293T; item: Cc1cn(-c2cc(NC(=O)c3ccc(C)c(Nc4nccc(-c5cccnc5)n4)c3)cc(C(F)(F)F)c2)cn1 [NILOTINIB]
Data returned: 64%

Data request: Form field - read-out: Population Fragmented Nuclei (%); system: HEK-293T; submitted item: Cc1cc(C)c(S(=O)(=O)N(Cc2ccc(-c3cccc(S(C)(=O)=O)c3)cc2)Cc2ccc(C(F)(F)F)o2)c(C)c1
Data returned: 13%

Data request: Notebook entry, HEK-293T assay: Population Fragmented Nuclei (%) of C=CCn1c(=O)c2cnc(Nc3ccc(N4CCN(C)CC4)cc3)nc2n1-c1cccc(C(C)(C)O)n1 [ADAVOSERTIB] = ?
Data returned: 27%

Data request: Provide the documented Population Fragmented Nuclei (%) with HEK-293T as the system for CN(C)C(=O)C(CCN1CCC(O)(c2ccc(Cl)cc2)CC1)(c1ccccc1)c1ccccc1.Cl [LOPERAMIDE HYDROCHLORIDE]
Data returned: 16%

Data request: # get_value(readout= Population Fragmented Nuclei (%), system= HEK-293T) for COC(=N)c1nc2ccc3ncnc(Nc4ccc(OC)cc4F)c3c2s1
Data returned: 9%

Data request: # value lookup — system HEK-293T, readout Population Fragmented Nuclei (%), item CCc1cccc(CC)c1NC(=O)c1nn(C)c2c1CCc1cnc(Nc3ccc(C(=O)NC4CCN(C)CC4)cc3OC(F)(F)F)nc1-2
Data returned: 12%

Data request: # query: Population Fragmented Nuclei (%) | item CCn1cc(-c2ccnc3[nH]c(-c4cccc(CN(C)C)c4)cc23)c(-c2ccc(NC(=O)N(C)C)cc2)n1 [GSK-1070916] | system: HEK-293T
Data returned: 17%

Data request: Observed Population Fragmented Nuclei (%) on HEK-293T for COc1cc(N2CCN(C)CC2)ccc1Nc1ncc2c(n1)N(C)c1ccccc1C(=O)N2C , please.
Data returned: 9%

Data request: Notebook entry, HEK-293T assay: Population Fragmented Nuclei (%) of CCc1cccc(CC)c1NC(=O)c1nn(C)c2c1CCc1cnc(Nc3ccc(N4CCN(C)CC4)cc3OC)nc1-2 = ?
Data returned: 11%

Data request: What reported Population Fragmented Nuclei (%) corresponds to Cl.O=c1c2cccn2c2ccccc2n1CCCN1CCC(c2ccc(Cl)cc2)CC1 on HEK-293T?
Data returned: 13%

Data request: Which Population Fragmented Nuclei (%) is reported with HEK-293T for this entry: Cc1ccc2nc(NCCN)c3ncc(C)n3c2c1.O=C(O)C(F)(F)F.O=C(O)C(F)(F)F ?
Data returned: 14%

Data request: Lab note: need Population Fragmented Nuclei (%) with HEK-293T for entry CN1C2CCC1CC(OC(c1ccc(F)cc1)c1ccc(F)cc1)C2.Cl (stereo unspecified) , please look it up.
Data returned: 16%

Data request: For the record CCCS(=O)(=O)Nc1ccc(F)c(C(=O)c2c[nH]c3ncc(Cl)cc23)c1F [PLX-4720] , what value of Population Fragmented Nuclei (%) is listed for HEK-293T?
Data returned: 14%

Data request: Recall the recorded Population Fragmented Nuclei (%) for CNC(=O)c1ccc(Nc2nc(OC3CCCC3)c3c(-c4ccc5nc(C)oc5c4)c[nH]c3n2)c(OC)c1 with HEK-293T and state it.
Data returned: 20%

Data request: Please state recorded Population Fragmented Nuclei (%) (tested on HEK-293T) of CCN1CCN(Cc2ccc(Nc3ncc(F)c(-c4cc(F)c5nc(C)n(C(C)C)c5c4)n3)nc2)CC1.CS(=O)(=O)O
Data returned: 23%

Data request: Could you share what Population Fragmented Nuclei (%) was measured for CN1CCN(C(=O)C(C)(C)c2ccc(C(=O)Nc3cn4cc(-c5cc(C(C)(C)C)cc(C(C)(C)C)c5)ccc4n3)cc2)CC1 [T3-CLK-N] , tested on HEK-293T?
Data returned: 20%

Value source: ChEMBL document CHEMBL4689842
